System: 292921-168-R-J2-PDC complex spheroid growth;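 note: spheroids exposed to compounds for seven days after three days of growth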
Test: Anticancer human tumor 292921-168-R-J2-PDC patient-derived pancreatic carcinoma cell line growth inhibition [AhR]
Settings: second compound 10 µM; first compound 0.01 µM; active compounds read low
Description: Multicellular complex tumor spheroid response to aryl hydrocarbon receptor antagonists in combination with a variety of drugs and investigational agents in selected tumor cell lines […] Compounds. […] If the clinical Cmax for an agent had not been determined, the highest concentration tested was 10 microM (Table 1). […]
Measured viability, T/C accompanies every entry in the list below.
measured property: viability, T/C

[[record]]
compound = "CC[C@@]1(O)C(=O)OCc2c1cc1n(c2=O)Cc2cc3c(CN(C)C)c(O)ccc3nc2-1 + CC(CO)NC(=O)c1cc(-c2ccc(Cl)cc2)nn(-c2cnn(C)c2)c1=O"
target_entity = "292921-168-R-J2-PDC complex spheroid growth"
recorded_value = "62%"

[[record]]
compound = "CC1COCCN1c1cc(-c2ccnn2C)c2ccnc(-c3ccn[nH]3)c2n1 (configuration not stated) + CC(CO)NC(=O)c1cc(-c2ccc(Cl)cc2)nn(-c2cnn(C)c2)c1=O"
target_entity = "292921-168-R-J2-PDC complex spheroid growth"
recorded_value = "51%"

[[record]]
compound = "Nc1ncn(C2CC(O)C(CO)O2)c(=O)n1 (configuration not stated) + Cc1cncc(-c2nc(NCCc3c[nH]c4ccccc34)c3ncn(C(C)C)c3n2)c1"
target_entity = "292921-168-R-J2-PDC complex spheroid growth"
recorded_value = "49%"

[[record]]
compound = "Nc1ncn(C2CC(O)C(CO)O2)c(=O)n1 (configuration not stated) + Cc1ccccc1N=Nc1ccc(NC(=O)c2ccnn2C)c(C)c1"
target_entity = "292921-168-R-J2-PDC complex spheroid growth"
recorded_value = "65.3%"

[[record]]
compound = "CC1COCCN1c1cc(-c2ccnn2C)c2ccnc(-c3ccn[nH]3)c2n1 (configuration not stated) + Cc1ccccc1N=Nc1ccc(NC(=O)c2ccnn2C)c(C)c1"
target_entity = "292921-168-R-J2-PDC complex spheroid growth"
recorded_value = "57%"

[[record]]
compound = "Cn1ncnc1C1c2n[nH]c(=O)c3cc(F)cc(c23)NC1c1ccc(F)cc1 (configuration not stated) + Cc1cncc(-c2nc(NCCc3c[nH]c4ccccc34)c3ncn(C(C)C)c3n2)c1"
target_entity = "292921-168-R-J2-PDC complex spheroid growth"
recorded_value = "52.5%"

[[record]]
compound = "CC[C@@]1(O)C(=O)OCc2c1cc1n(c2=O)Cc2cc3c(CN(C)C)c(O)ccc3nc2-1 + Cc1ccccc1N=Nc1ccc(NC(=O)c2ccnn2C)c(C)c1"
target_entity = "292921-168-R-J2-PDC complex spheroid growth"
recorded_value = "55.6%"

[[record]]
compound = "Nc1ncn(C2CC(O)C(CO)O2)c(=O)n1 (configuration not stated) + CC(CO)NC(=O)c1cc(-c2ccc(Cl)cc2)nn(-c2cnn(C)c2)c1=O"
target_entity = "292921-168-R-J2-PDC complex spheroid growth"
recorded_value = "72.8%"

[[record]]
compound = "CC1COCCN1c1cc(-c2ccnn2C)c2ccnc(-c3ccn[nH]3)c2n1 (configuration not stated) + Cc1cncc(-c2nc(NCCc3c[nH]c4ccccc34)c3ncn(C(C)C)c3n2)c1"
target_entity = "292921-168-R-J2-PDC complex spheroid growth"
recorded_value = "48.1%"

[[record]]
compound = "Cn1ncnc1C1c2n[nH]c(=O)c3cc(F)cc(c23)NC1c1ccc(F)cc1 (configuration not stated) + Cc1ccccc1N=Nc1ccc(NC(=O)c2ccnn2C)c(C)c1"
target_entity = "292921-168-R-J2-PDC complex spheroid growth"
recorded_value = "61.7%"

[[record]]
compound = "CC[C@@]1(O)C(=O)OCc2c1cc1n(c2=O)Cc2cc3c(CN(C)C)c(O)ccc3nc2-1 + Cc1cncc(-c2nc(NCCc3c[nH]c4ccccc34)c3ncn(C(C)C)c3n2)c1"
target_entity = "292921-168-R-J2-PDC complex spheroid growth"
recorded_value = "37.5%"

[[record]]
compound = "Cn1ncnc1C1c2n[nH]c(=O)c3cc(F)cc(c23)NC1c1ccc(F)cc1 (configuration not stated) + CC(CO)NC(=O)c1cc(-c2ccc(Cl)cc2)nn(-c2cnn(C)c2)c1=O"
target_entity = "292921-168-R-J2-PDC complex spheroid growth"
recorded_value = "73%"

